Cited source: paper PMC12748989

Quick record of Average (percentage cell inhibition), Dmastoparan MDA-MB231 12.5uM values for MDA-MB-231 cells.
measured-metric: Average (percentage cell inhibition), Dmastoparan MDA-MB231 12.5uM (%)

compound: CC[C@H](C)[C@H](N)C(=O)N1CCC[C@H]1C(=O)N[C@@H](CC(C)C)C(=O)N[C@@H](CCCCN)C(=O)N[C@@H](C)C(=O)N[C@@H](CC(C)C)C(=O)N[C@@H](C)C(=O)N[C@@H](C)C(=O)N[C@@H](CC(C)C)C(=O)N[C@@H](C)C(=O)N[C@@H](CCCCN)C(=O)N[C@@H](CCCCN)C(=O)N[C@H](C(=O)N[C@@H](CC(C)C)C(N)=O)[C@@H](C)CC [P2]
experimental-value: 36.9174
--
compound: CC[C@H](C)[C@H](N)C(=O)N[C@@H](CC(N)=O)C(=O)N[C@@H](CC(C)C)C(=O)N[C@@H](CCCCN)C(=O)N[C@@H](C)C(=O)N[C@@H](CC(C)C)C(=O)N[C@@H](C)C(=O)N[C@@H](C)C(=O)N[C@@H](CC(C)C)C(=O)N[C@H](C(=O)N[C@@H](CCCCN)C(=O)N[C@@H](CCCCN)C(=O)N[C@H](C(=O)N[C@@H](CC(C)C)C(N)=O)[C@@H](C)CC)C(C)C
experimental-value: 85.9235
--
compound: CC[C@H](C)[C@H](N)C(=O)N[C@@H](CC(N)=O)C(=O)N[C@@H](CC(C)C)C(=O)N[C@@H](CCCCN)C(=O)N[C@@H](C)C(=O)N[C@@H](CC(C)C)C(=O)N[C@@H](CCC(=O)O)C(=O)N[C@@H](C)C(=O)N[C@@H](CC(C)C)C(=O)N[C@@H](C)C(=O)N[C@@H](CCCCN)C(=O)N[C@@H](CCCCN)C(=O)N[C@H](C(=O)N[C@@H](CC(C)C)C(N)=O)[C@@H](C)CC
experimental-value: 27.5958
--
compound: CC[C@H](C)[C@H](N)C(=O)N[C@@H](CC(N)=O)C(=O)N[C@@H](CC(C)C)C(=O)N[C@@H](CCCCN)C(=O)N[C@@H](C)C(=O)N[C@@H](CC(C)C)C(=O)N[C@@H](C)C(=O)N[C@@H](C)C(=O)N[C@@H](CC(C)C)C(=O)N[C@@H](C)C(=O)N[C@@H](CCCCN)C(=O)N[C@@H](CCCCN)C(=O)N[C@H](C(=O)N[C@@H](Cc1ccc(O)cc1)C(N)=O)[C@@H](C)CC
experimental-value: 29.2623
--
compound: CC[C@H](C)[C@H](N)C(=O)N[C@@H](CC(N)=O)C(=O)N[C@@H](CC(C)C)C(=O)N[C@@H](CCCCN)C(=O)N[C@@H](C)C(=O)N[C@@H](CO)C(=O)N[C@@H](C)C(=O)N[C@@H](C)C(=O)N[C@@H](CC(C)C)C(=O)N[C@@H](C)C(=O)N[C@@H](CCCCN)C(=O)N[C@@H](CCCCN)C(=O)N[C@H](C(=O)N[C@@H](CC(C)C)C(N)=O)[C@@H](C)CC
experimental-value: 29.7699
--
compound: CC[C@H](C)[C@H](N)C(=O)N[C@@H](Cc1c[nH]c2ccccc12)C(=O)N[C@@H](CC(C)C)C(=O)N[C@@H](CCCCN)C(=O)N[C@@H](C)C(=O)N[C@@H](CC(C)C)C(=O)N[C@@H](C)C(=O)N[C@@H](C)C(=O)N[C@@H](CC(C)C)C(=O)N[C@@H](C)C(=O)N[C@@H](CCCCN)C(=O)N[C@@H](CCCCN)C(=O)N[C@H](C(=O)N[C@@H](CC(C)C)C(N)=O)[C@@H](C)CC
experimental-value: 98.3458
--
compound: CC[C@H](C)[C@H](N)C(=O)N[C@@H](CC(N)=O)C(=O)N[C@@H](CC(C)C)C(=O)N[C@@H](CCCCN)C(=O)N[C@@H](C)C(=O)N[C@@H](CC(C)C)C(=O)N[C@@H](CCCCN)C(=O)N[C@@H](C)C(=O)N[C@@H](CC(C)C)C(=O)N[C@@H](C)C(=O)N[C@@H](CCCCN)C(=O)N[C@@H](CCCCN)C(=O)N[C@H](C(=O)N[C@@H](CC(C)C)C(N)=O)[C@@H](C)CC
experimental-value: 38.2404
--
compound: CC[C@H](C)[C@H](N)C(=O)N[C@@H](CC(N)=O)C(=O)N[C@@H](CC(C)C)C(=O)N[C@@H](CCCCN)C(=O)N[C@@H](C)C(=O)N[C@@H](CC(C)C)C(=O)N[C@@H](C)C(=O)N[C@@H](C)C(=O)N[C@@H](CC(C)C)C(=O)N[C@@H](C)C(=O)N[C@@H](CCCCN)C(=O)N[C@@H](CCCCN)C(=O)N[C@H](C(=O)N[C@@H](Cc1c[nH]c2ccccc12)C(N)=O)[C@@H](C)CC
experimental-value: 56.1495
--
compound: CC[C@H](C)[C@H](N)C(=O)N[C@@H](CC(N)=O)C(=O)N[C@@H](CC(C)C)C(=O)N[C@@H](CCCCN)C(=O)N[C@@H](C)C(=O)N[C@@H](CC(C)C)C(=O)N[C@@H](C)C(=O)N[C@@H](C)C(=O)N[C@@H](CC(C)C)C(=O)N[C@@H](CC(C)C)C(=O)N[C@@H](CCCCN)C(=O)N[C@@H](CCCCN)C(=O)N[C@H](C(=O)N[C@@H](CC(C)C)C(N)=O)[C@@H](C)CC
experimental-value: 86.3514
--
compound: CC[C@H](C)[C@H](N)C(=O)N[C@@H](CC(N)=O)C(=O)N[C@@H](CC(C)C)C(=O)N[C@@H](CCCCN)C(=O)N[C@@H](C)C(=O)N[C@@H](Cc1c[nH]c2ccccc12)C(=O)N[C@@H](C)C(=O)N[C@@H](C)C(=O)N[C@@H](CC(C)C)C(=O)N[C@@H](C)C(=O)N[C@@H](CCCCN)C(=O)N[C@@H](CCCCN)C(=O)N[C@H](C(=O)N[C@@H](CC(C)C)C(N)=O)[C@@H](C)CC
experimental-value: 42.8966
